Target: Neuronal acetylcholine receptor; alpha4/beta2 (Homo sapiens, UniProt P17787+P43681)
Sequence (P17787 whole entry): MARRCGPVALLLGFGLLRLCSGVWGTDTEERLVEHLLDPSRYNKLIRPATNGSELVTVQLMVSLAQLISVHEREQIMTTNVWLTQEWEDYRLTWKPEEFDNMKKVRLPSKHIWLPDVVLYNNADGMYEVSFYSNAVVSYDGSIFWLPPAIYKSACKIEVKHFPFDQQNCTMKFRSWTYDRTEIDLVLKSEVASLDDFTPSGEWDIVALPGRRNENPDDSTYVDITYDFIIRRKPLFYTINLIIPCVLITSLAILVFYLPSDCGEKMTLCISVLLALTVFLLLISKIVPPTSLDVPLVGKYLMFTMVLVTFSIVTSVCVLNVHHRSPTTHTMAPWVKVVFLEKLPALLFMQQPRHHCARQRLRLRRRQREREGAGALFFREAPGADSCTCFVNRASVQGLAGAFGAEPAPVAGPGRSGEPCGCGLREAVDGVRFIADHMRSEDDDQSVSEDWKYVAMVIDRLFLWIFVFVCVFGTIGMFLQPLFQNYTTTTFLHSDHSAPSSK
Sequence (P43681 whole entry): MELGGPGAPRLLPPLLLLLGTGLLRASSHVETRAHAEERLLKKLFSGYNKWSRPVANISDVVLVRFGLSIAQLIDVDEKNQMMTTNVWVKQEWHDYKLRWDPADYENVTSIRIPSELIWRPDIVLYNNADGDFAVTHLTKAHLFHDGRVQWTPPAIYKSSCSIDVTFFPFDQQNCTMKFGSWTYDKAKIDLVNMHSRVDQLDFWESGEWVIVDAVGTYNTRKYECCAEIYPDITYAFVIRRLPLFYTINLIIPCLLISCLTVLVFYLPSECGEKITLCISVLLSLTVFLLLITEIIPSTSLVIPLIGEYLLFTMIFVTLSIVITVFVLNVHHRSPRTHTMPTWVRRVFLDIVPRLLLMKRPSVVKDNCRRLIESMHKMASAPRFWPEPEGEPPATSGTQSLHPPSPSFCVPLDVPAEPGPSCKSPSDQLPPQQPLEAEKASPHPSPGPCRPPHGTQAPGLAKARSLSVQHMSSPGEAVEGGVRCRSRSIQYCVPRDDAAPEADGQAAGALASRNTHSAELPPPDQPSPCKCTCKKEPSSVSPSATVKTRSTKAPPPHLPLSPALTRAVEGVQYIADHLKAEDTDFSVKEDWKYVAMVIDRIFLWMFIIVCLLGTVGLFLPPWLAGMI
Assay: Agonist activity at human alpha4beta2 nACHR expressed in xenopus oocyte assessed as potentiation of acetylcholine-induced current by two electrode voltage clamp assay
Type: functional
Conditions: read-out: pEC50 (converted)
Counter-ions that a name gives are not always drawn.
measured-attribute: EC50 (nM)
Field: numeric (nM). Do not append units.

Output EC50 of CCC(C)(C)c1[nH]c2cc(Br)ccc2c1CCNC
138

Provide one value: measured EC50 of C=CC(C)(C)c1[nH]c2ccccc2c1CCNC
7240

Please report the measured EC50 for CCC(C)(C)c1[nH]c2ccccc2c1CCNC
3020

For the compound C=CC(C)(C)c1[nH]c2cc(Br)ccc2c1CCN , report EC50.
513

Fill in reported EC50 for this entry: CNCCc1c(C(C)(C)C)[nH]c2ccccc12
3980

Hello, please tell me recorded EC50 for this one: C=CC(C)(C)c1[nH]c2cc(Br)ccc2c1CCNC [DESFORMYLFLUSTRABROMINE HYDROCHLORIDE]
331
